Cited source: the supplement of paper PMC10724198

Test system: Saccharomyces cerevisiae;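 also: PSI is a weighted mean of sequencing reads over stability bins, variants kept only with over 10 reads, mCherry proximal and sfGFP distal, peptide attached via GGGS linker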
Assay: protein stability index of tFT-peptide fusion (C-terminal peptide) (PSI (0-1 scale)); higher = more stable (slower turnover)
Conditions: genetic background: cdc53-1; temperature: 37 C
experimental-readout: protein stability index
API doc: respond with a numeric literal and nothing else, no unit.

# input Look up protein stability index for this sequence: CGFVCGLCLCRV
# output 0.586

# input Try this sequence too: SGRFRFVLLGLV
# output 0.601

# input Same for WVFYAVRWRTWN
# output 0.44

# input Ok, now FPCRNFMVFFCF
# output 0.442

# input GDLEFCCLIIVL ?
# output 0.556

# input Now try YWGFHPCCAFGY .
# output 0.784

# input Queued: MGVTVRVEGIRA
# output 0.517

# input Similarly, YPPLFLLMRGVL ?
# output 0.694

# input Please give the result for DGYLFKGIWFFV too.
# output 0.733

# input Next sequence: PALPQPMNPAPP
# output 0.722

# input Same question for FFLLLVGFSVLG please.
# output 0.265

# input And what about the sequence IVVSSRFLGFFC ?
# output 0.701

# input Next entry: GINHLSLKLRLF
# output 0.723

# input Moving on to LVDPFAALRHVV
# output 0.768

# input MALAVRVVRCGA ?
# output 0.422

# input Okay, and CYKYTYVKNNMI ?
# output 0.765

# input Another: PRIVLFLRLHSN
# output 0.651

# input Next: LPSLPPPPPPPP
# output 0.717

# input Try this sequence too: SGVVWFYIFCLS
# output 0.535

# input Record: VMLFYVGSGVVS
# output 0.688

# input Next: LRLEFRTNWFLQ
# output 0.736

# input And for PRPLLSIYLRHA ?
# output 0.666

# input Query FFVKGFRLLVFQ next
# output 0.481

# input And the next one, AFRSPLLMLLVL ?
# output 0.381

# input Field entry: RWCLVWGGVWGV
# output 0.68

# input MALAVRVVLCGA , same question.
# output 0.0673

# input Further, for AWPGRLWYFWLA ?
# output 0.785

# input Please answer likewise for FWHGRCPGLYLV
# output 0.639

# input Now the sequence PRQPSKSNASNR
# output 0.728

# input Now this one: TGRLFVSLRVWY
# output 0.375

# input Same question, WLFFVVLPVKAF this time
# output 0.146

# input Field entry: FERVEYEVLGIG
# output 0.441

# input For RRMGLRLFLLWM then?
# output 0.657

# input Also need CEERVKSRLKQN , thanks.
# output 0.68

# input And HRARILLIRICP ?
# output 0.517

# input Can you check IFSTQMVRFSLL next?
# output 0.732

# input Repeat for the following sequence: FVLWLIYVDLFF
# output 0.234

# input What do you get for VLLCGRMVVVEW ?
# output 0.163

# input Param item: AMRTIFFPAFVS
# output 0.708

# input Then what about the sequence ACLLCVCVESRE ?
# output 0.575

# input Record: LYVQSVCFSVPR
# output 0.537

# input Request: YHDKLRAIEKFF
# output 0.725

# input GQFFRCWRRRLC , same question.
# output 0.709

# input Repeat for the following sequence: VRHPVVVVRRVI
# output 0.746

# input Same for IFFYQLYVDRLC
# output 0.292

# input Here is the next sequence: HPRPRPPPLPPP
# output 0.546

# input Same read-out for LQNCRVSVLLGW ?
# output 0.616

# input Thanks! And FSFEGVLVPLLV ?
# output 0.301

# input What would you report for GAVRRWGGVSFV ?
# output 0.707

# input Repeat with WSLPPLLSPLYF
# output 0.753

# input What do you get for CFCSFQFVRLWV ?
# output 0.616

# input FCIYLCLSTSIT , same question.
# output 0.221

# input Entry to check: LYRIETLFMRAQ
# output 0.41

# input What do you get for VVVFRWTCWLLV ?
# output 0.144

# input Param item: KIKQIKINNKIN
# output 0.654

# input Now try SFFCFFLSFFYL .
# output 0.53

# input Input SPCLSWTLVLVL
# output 0.324

# input Same thing, different sequence: MTLYSFSSALLA
# output 0.464

# input Can you handle CFVISVLFFFVG next?
# output 0.491

# input Try this sequence next: YVSLPFVVWWFC
# output 0.533

# input Cool, now TTATLSFAICAV
# output 0.455

# input Again, but for SFVFLVRRWLFV
# output 0.582

# input Another sequence: PVLIFTWVIVCH
# output 0.0674

# input And IWRGGSAVPMIC ?
# output 0.686

# input Now consider HVLALIFLYIPD and answer again.
# output 0.55

# input Next sequence: LRVVLVEWMCVV
# output 0.295

# input Input VSFFCLICRVYP
# output 0.446

# input Next entry: GRHRRIRYVKTS
# output 0.723

# input Same lookup for VGVSCVVCVCGV , please.
# output 0.471

# input # repeat for RIIKIRAISINL
# output 0.66

# input // same read-out, input: LVCLTPPPSPFS
# output 0.799

# input # repeat for GLLAEPALLLLS
# output 0.699

# input And what about the sequence VFSFGLLFQVCR ?
# output 0.625

# input Repeat with NLVCLDPFLVFV
# output 0.612

# input Thanks! And VKVKMKIIIIIK ?
# output 0.258

# input Please give the result for GVLIFLSFQPIA too.
# output 0.617

# input Record: CVFAYSPVALRC
# output 0.534

# input Now consider CGQIAFLGIAVK and answer again.
# output 0.504

# input Then this sequence: SVVRCWVLLGVA
# output 0.157

# input Same question for CGFVFFVLVVFW please.
# output 0.17

# input Now give it for SRPLYVMICTRV too.
# output 0.522

# input Another: PSPFHSFYLRLI
# output 0.643
